Numbers sourced from PubChem BioAssay (NCI).

Test system: RPMI-8226 leukemia
Test protocol: NCI tumour cell line growth inhibition, 384-well format
Assay readout: TGI (µM)
Report the figure in µM without appending any unit label.

Use the examples below as a reference point.
COCc1cc(C(=O)Nc2cc([C@H]3CC[C@@H](OC(=O)NC(C)C)C3)[nH]n2)n(C)n1	6.78
O=c1cc(-c2cccc3c2Sc2ccccc2S3)oc(N2CCOCC2)c1	13.9
C=CC(=O)Nc1cc(C)ccc1Nc1nc(Nc2cc(OC)ncc2C)ncc1C(F)(F)F	1.17

The record that follows has no TGI shown yet.
(Q) I would be grateful if you could share the reported TGI for Cc1nc(-c2cn3c(n2)-c2ccc(-c4cnn(C(C)(C)C(N)=O)c4)cc2OCC3)n(C(C)C)n1 .
(A) 13.3
